target: human CXCR4 receptor (wild type) (human, UniProt P61073 1-352); assay: cell-based or functional assay
Sequence (P61073 whole entry): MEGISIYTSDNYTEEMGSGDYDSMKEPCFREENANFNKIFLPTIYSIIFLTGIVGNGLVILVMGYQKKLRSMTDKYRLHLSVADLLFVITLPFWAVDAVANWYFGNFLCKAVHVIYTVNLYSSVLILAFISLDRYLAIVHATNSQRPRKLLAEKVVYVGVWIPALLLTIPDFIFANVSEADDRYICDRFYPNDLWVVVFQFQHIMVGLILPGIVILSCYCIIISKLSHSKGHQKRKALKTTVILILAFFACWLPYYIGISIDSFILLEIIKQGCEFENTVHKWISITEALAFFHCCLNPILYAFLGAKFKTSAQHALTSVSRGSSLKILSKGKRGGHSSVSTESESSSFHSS
Assign IC50, [35S]GTPγS binding, Hela cells, SDF-1 10 nM to each entry below.
API: value field is a number in pM; no unit string.

Please report the recorded IC50, [35S]GTPγS binding, Hela cells, SDF-1 10 nM for anti-CXCR4 chimeric Mab c515H7 (antibody, human IgG1, kappa, V domains shown, they may be whole chains; also called chimeric 515H7) VH: EVNLVESGGGLVQPGGSLRLSCATSGFTFTDNYMSWVRQPPGKALEWLGFIRNKANGYTTDYSASVRGRFTISRDNSQSILYLQMNALRAEDSATYYCARDVGSNYFDYWGQGTTLTVSS VL: DIVMSQSPSSLAVSAGEKVTMSCKSSQSLFNSRTRKNYLAWYQQKPGQSPKLLIYWASARDSGVPARFTGSGSETYFTLTISRVQAEDLAVYYCMQSFNLRTFGGGTKLEIKR . 600

# repeat for anti-CXCR4 chimeric Mab c414H5 (antibody, human IgG1, kappa, V domains shown, they may be whole chains; also called chimeric 414H5) VH: EVKLVESGGGLVQPGGSLRLSCTTSGFTFTDYYMSWVRQSPGKALEWLTFIRNKANGYTTEYSASVKGRFTISRDNSQSILYLQMNTLRAEDSATYYCARDIPGFAYWGQGTLVTVSA VL: DIVMSQSPSSLAVSAGEKVTMSCKSSQSLYNSRTRKNYLAWYQQKPGQSPKLLIYWASTRESGVPDRFTGSGSGTDFTLTITSVQAEDLAVFYCKQSYNLRTFGGGTKLEIKR 300

# repeat for anti-CXCR4 Mab 515H7 (antibody, V domains shown) VH: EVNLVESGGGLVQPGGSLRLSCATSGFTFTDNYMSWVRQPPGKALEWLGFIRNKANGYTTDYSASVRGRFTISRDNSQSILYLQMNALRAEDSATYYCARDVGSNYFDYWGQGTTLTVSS VL: DIVMSQSPSSLAVSAGEKVTMSCKSSQSLFNSRTRKNYLAWYQQKPGQSPKLLIYWASARDSGVPARFTGSGSETYFTLTISRVQAEDLAVYYCMQSFNLRTFGGGTKLEIK 200

# repeat for anti-CXCR4 Mab 414H5 (antibody, V domains shown) VH: EVKLVESGGGLVQPGGSLRLSCTTSGFTFTDYYMSWVRQSPGKALEWLTFIRNKANGYTTEYSASVKGRFTISRDNSQSILYLQMNTLRAEDSATYYCARDIPGFAYWGQGTLVTVSA VL: DIVMSQSPSSLAVSAGEKVTMSCKSSQSLYNSRTRKNYLAWYQQKPGQSPKLLIYWASTRESGVPDRFTGSGSGTDFTLTITSVQAEDLAVFYCKQSYNLRTFGGGTKLEIK 500
